Assay: Clearance in Wistar rat at 2 mg/kg, iv
Format: ADME, organism-based
Conditions: in vivo
readoutLabel: clearance (mL/min/kg)

- smilesData: "CCc1ccc([C@@H]2c3[nH]c4ccccc4c(=O)c3CN2c2ncc(-c3ccccn3)cn2)o1"
  readoutLabel: "clearance"
  readoutValue: 533
- smilesData: "CCc1ccc([C@@H]2c3[nH]c4ccccc4c(=O)c3CN2c2ncc(-c3ccccn3)cn2)s1"
  readoutLabel: "clearance"
  readoutValue: 287

====

Molecular target: Cone cGMP-specific 3',5'-cyclic phosphodiesterase subunit alpha' (Homo sapiens, UniProt P51160)
Sequence (P51160 whole entry): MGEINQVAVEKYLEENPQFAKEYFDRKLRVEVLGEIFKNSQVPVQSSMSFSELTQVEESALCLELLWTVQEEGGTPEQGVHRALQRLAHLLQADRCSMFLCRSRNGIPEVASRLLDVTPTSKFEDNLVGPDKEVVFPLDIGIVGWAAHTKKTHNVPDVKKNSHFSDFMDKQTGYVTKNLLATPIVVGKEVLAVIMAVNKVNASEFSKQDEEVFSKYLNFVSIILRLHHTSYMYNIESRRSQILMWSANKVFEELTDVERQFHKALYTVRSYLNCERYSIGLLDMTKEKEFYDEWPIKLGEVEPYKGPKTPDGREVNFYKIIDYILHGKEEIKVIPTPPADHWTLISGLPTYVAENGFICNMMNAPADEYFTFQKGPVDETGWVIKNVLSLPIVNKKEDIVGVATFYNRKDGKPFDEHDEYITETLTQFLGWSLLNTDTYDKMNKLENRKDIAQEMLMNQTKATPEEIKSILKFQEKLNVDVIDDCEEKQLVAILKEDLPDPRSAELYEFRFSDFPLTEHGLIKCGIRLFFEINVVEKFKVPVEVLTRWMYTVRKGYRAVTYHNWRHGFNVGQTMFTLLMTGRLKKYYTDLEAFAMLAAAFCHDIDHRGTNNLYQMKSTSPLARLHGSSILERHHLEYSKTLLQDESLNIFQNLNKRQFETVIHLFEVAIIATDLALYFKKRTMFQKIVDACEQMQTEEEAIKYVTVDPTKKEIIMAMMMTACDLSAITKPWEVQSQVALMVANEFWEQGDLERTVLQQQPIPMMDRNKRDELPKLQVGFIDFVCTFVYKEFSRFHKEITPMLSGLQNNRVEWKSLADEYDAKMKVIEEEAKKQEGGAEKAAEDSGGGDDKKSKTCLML
Assay: Inhibition of N-terminal GST-tagged full length recombinant human PDE6C expressed in Baculovirus infected Sf9 insect cells using […] as substrate after 1 hr by fluorescence polarization assay
pIC50: −log10 of the molar value.
Quick reference for pIC50 among some compounds
readoutLabel: pIC50

- compound: "CCc1ccc(C2c3[nH]c4ccccc4c(=O)c3CN2c2ncc(-c3ccccn3)cn2)s1 (racemic)"
  readoutLabel: "pIC50"
  readoutValue: 8.32
- compound: "CCc1ccc([C@H]2c3[nH]c4ccccc4c(=O)c3CN2c2ncc(-c3ccccn3)cn2)s1"
  readoutLabel: "pIC50"
  readoutValue: 7.47
- compound: "CCc1ccc([C@@H]2c3[nH]c4ccccc4c(=O)c3CN2c2ncc(-c3ccccn3)cn2)s1"
  readoutLabel: "pIC50"
  readoutValue: 8.92
- compound: "CCc1ccc([C@H]2c3[nH]c4ccccc4c(=O)c3CN2c2ncc(-c3ccccn3)cn2)o1"
  readoutLabel: "pIC50"
  readoutValue: 8.42
- compound: "CCc1ccc(C2c3[nH]c4ccccc4c(=O)c3CN2c2ncccn2)o1 (stereo not drawn)"
  readoutLabel: "pIC50"
  readoutValue: 8.21
- compound: "CCc1ccc(C2c3[nH]c4ccccc4c(=O)c3CN2c2ncc(-c3ccccn3)cn2)o1 (racemic)"
  readoutLabel: "pIC50"
  readoutValue: 8.64
- compound: "CCc1ccc([C@@H]2c3[nH]c4ccccc4c(=O)c3CN2c2ncc(-c3ccccn3)cn2)o1"
  readoutLabel: "pIC50"
  readoutValue: 8.82
- compound: "CCc1ccc(C2c3[nH]c4ccccc4c(=O)c3CN2c2ncccn2)s1 (stereo not drawn)"
  readoutLabel: "pIC50"
  readoutValue: 8.43

The measured values listed here are drawn from ChEMBL document CHEMBL4196066.
